system: Human immunodeficiency virus 1; test: Antiviral activity against HIV1 NL432 infected in human TZM-Bl cells assessed as inhibition of viral replication after 2 days by luciferase reporter gene analysis; format: functional, organism-based; conditions: Human immunodeficiency virus 1, NL432, TZM-bl, 48 h; read-out: IC50
property.measured: IC50 (µM)
// return numeric value only (unit: µM, not printed)

[Q] Fill blank: measured IC50 of the compound CC1(C)Oc2cc3c(cc2O1)[C@@H]1c2cccc(O)c2OC[C@]1(O)C3 is ____.
[A] 24.6

[Q] And what about the compound Oc1ccc2c(c1)C[C@@]1(O)COc3ccccc3[C@@H]21 ?
[A] 67.6

[Q] And what about the compound Oc1cc2c(cc1O)[C@@H]1c3ccc(O)c(O)c3OC[C@]1(O)C2 ?
[A] 100

###

tested on: Human immunodeficiency virus 1; assay: Antiviral activity against HIV1 NL432 infected in human TZM-Bl cells assessed as inhibition of viral replication after 2 days by luciferase reporter gene analysis; assay type: functional, organism-based; conditions: tzm-bl
property.measured: IC50

smiles_record=Oc1cc2c(cc1O)[C@@H]1c3ccccc3OC[C@]1(O)C2 property_measured=IC50 assay_value=ND(toxic)
smiles_record=CC1(C)Oc2cc3c(cc2O1)[C@@H]1c2cccc(OCc4ccccc4)c2OC[C@]1(O)C3 property_measured=IC50 assay_value="Not Active"
smiles_record=O[C@]12COc3ccccc3[C@H]1c1ccccc1C2 property_measured=IC50 assay_value="Not Active"
smiles_record=Oc1cc2c(cc1O)[C@@H]1c3cccc(O)c3OC[C@]1(O)C2 property_measured=IC50 assay_value=ND(toxic)

###

test: Cytotoxicity against human MOLT4 cells expressing CD4+ after 2 days by MTT assay; format: cell-based, MOLT-4
What CC50 at 48 h was measured for each of the following?
// return numeric value only (unit: µM, not printed)

[Q] Fill blank: measured CC50 at 48 h of the molecule Oc1cc2c(cc1O)[C@@H]1c3ccc(O)c(O)c3OC[C@]1(O)C2 is ____.
[A] 40

[Q] And what about the molecule Oc1cc2c(cc1O)[C@@H]1c3cccc(O)c3OC[C@]1(O)C2 ?
[A] 32

[Q] And what about the molecule Oc1ccc2c(c1)C[C@@]1(O)COc3ccccc3[C@@H]21 ?
[A] 82

[Q] And what about the molecule Oc1cc2c(cc1O)[C@@H]1c3ccccc3OC[C@]1(O)C2 ?
[A] 1.9

###

assay: Cytotoxicity against human MOLT4 cells expressing CD4+ after 2 days by MTT assay; format: cell-based, MOLT-4
property.measured: CC50 at 48 h

[Q] Fill blank: measured CC50 at 48 h of the molecule O[C@]12COc3ccccc3[C@H]1c1ccccc1C2 is ____.
[A] > 100 µM

[Q] And what about the molecule CC1(C)Oc2cc3c(cc2O1)[C@@H]1c2cccc(O)c2OC[C@]1(O)C3 ?
[A] > 80 µM

[Q] And what about the molecule CC1(C)Oc2cc3c(cc2O1)[C@@H]1c2cccc(OCc4ccccc4)c2OC[C@]1(O)C3 ?
[A] > 80 µM
